All values here come from ChEMBL document CHEMBL3727343.

- Assayed system: Olfactory receptor 5K1 (Homo sapiens)
- Sequence (whole entry): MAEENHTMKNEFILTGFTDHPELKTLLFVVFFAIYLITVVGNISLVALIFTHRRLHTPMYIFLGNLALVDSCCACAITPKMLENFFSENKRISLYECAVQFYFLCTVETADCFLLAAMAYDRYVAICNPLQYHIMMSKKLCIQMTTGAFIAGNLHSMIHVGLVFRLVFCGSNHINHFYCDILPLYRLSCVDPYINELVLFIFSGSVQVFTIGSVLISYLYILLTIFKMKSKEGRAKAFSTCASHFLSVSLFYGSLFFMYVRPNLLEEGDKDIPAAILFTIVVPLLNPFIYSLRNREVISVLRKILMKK
- Measurement notes: Antagonist activity at human OR5K1 expressed in HEK293 cells assessed as inhibition of 2,6-dimethylpyrazine-induced response at 100 uM by luciferase reporter gene assay
- Assay type: functional, cell-based
Endpoint label: inhibition

CC(C)=CCCC(C)CCOCC=O (stereo not given); > 40%

Field: inhibition. Fill in for each record below.
1. CCC(O)COC1CCCCC1C(C)(C)C (stereo not given)
2. CC/C(=C\CC1CC=C(C)C1(C)C)CO (stereo not given)
3. CC(=O)c1c(C)c([N+](=O)[O-])c(C(C)(C)C)c([N+](=O)[O-])c1C

Data returned:
> 75%
> 75%
> 40%

For each of the compounds below, note its inhibition.
1. O=C/C=C/c1ccccc1
2. C[C@@H]1[C@@H]2C(=O)C[C@H]3[C@@H]2C(C)(C)CCC[C@]13C
3. CC(C=O)Cc1ccc(C(C)(C)C)cc1 (stereo not given)
4. CCCCC/C(C=O)=C\c1ccccc1
5. CC/C=C(\C)C(O)CCCCC (stereo not given)
6. CC(=O)C1=C(C)[C@@H]2C[C@@]3(C1)[C@H](C)CC[C@H]3C2(C)C

Data returned:
1. > 50%
2. > 75%
3. > 50%
4. > 75%
5. > 75%
6. > 50%

====

Record form. Attribute: inhibition. Fill in for each entry.
- Assayed system: Olfactory receptor 5K1 (Homo sapiens) (UniProt Q8NHB7)
- Measurement notes: Antagonist activity at human OR5K1 expressed in HEK293 cells assessed as inhibition of 2,6-dimethylpyrazine-induced response at 100 uM by luciferase reporter gene assay
- Format: functional, cell-based

Example compounds with recorded inhibition:
CC(=O)/C=C/C1=C(C)CCCC1(C)C; > 75%
CC1=CCC(C(C)CC2CCCC2=O)CC1 (stereo not given); > 50%
C/C=C/C(=O)C1=C(C)C=CCC1(C)C; > 40%
C=CCc1ccc(O)c(OC)c1; > 40%
CC1=CC(C)C(C=O)CC1 (stereo not given); > 40%

Each compound below has a recorded value; state its inhibition.
1. CCCCCCCC1CCC(=O)O1 (stereo not given)
2. O=C1CCCCCCCCCCCCCCO1
3. CC(C)[C@H]1CC[C@@H](CO)CC1

Data returned:
["> 50%", "> 40%", "> 40%"]

Provide the reported inhibition of each entry below, same order.
1. CC(=O)C1(C)CC2=C(CCCC2(C)C)CC1C (stereo not given)
2. CC(C=O)Cc1ccc(C(C)C)cc1 (stereo not given)
3. CC(=O)c1cc2c(cc1C)C(C)(C)C(C)CC2(C)C (stereo not given)
4. CC(C=O)C1CCCCC1 (stereo not given)
5. CC(C)=CCC/C(C)=C/C=O

Data returned:
1. > 75%
2. > 75%
3. > 75%
4. > 50%
5. > 75%

Dear colleague, could you send me inhibition for each of the items below? Thanks.
1. CC(C)CCCC(C)CCO (stereo not given)
2. O=C(OCCc1ccccc1)c1ccccc1O

Data returned:
1. > 50%
2. > 75%
